Experiment: viability rescue of complex I mutant cybrids, primary screen, cell-based, galactose medium, ATP luminescence (AID 1645843);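 note: positive z means more ATP and so rescue of galactose-driven cybrid death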
Settings: complex I mutant cybrid cells, 72 h, stronger effect = higher value

>  <compound>
O=c1[nH]c(=O)c2[nH]c(=O)[nH]c2[nH]1

>  <z-score>
0.705

$$$$
>  <compound>
NCCCS(=O)(=O)O

>  <z-score>
0.265

$$$$
>  <compound>
O=c1[nH]c2ccccc2n1CCCN1CCN(C(c2ccccc2)c2ccccc2)CC1

>  <z-score>
-1.56

$$$$
>  <compound>
CO/N=C(\C(=O)N[C@@H]1C(=O)N2C(C(=O)O)=C(CSc3nc(=O)c(O)nn3C)CSC12)c1csc(N)n1 (some centres not stated)

>  <z-score>
0.175

$$$$
>  <compound>
NCCSSCCN

>  <z-score>
-0.04

$$$$
>  <compound>
CN1C(=O)CC[C@H]1c1cccnc1

>  <z-score>
0.48

$$$$
>  <compound>
CON=C(C(=O)NC1C(=O)N2C(C(=O)O)=C(COC(C)=O)CSC12)c1csc(N)n1 (configuration not stated)

>  <z-score>
0.145

$$$$
>  <compound>
CN1CCN(C2=Nc3ccccc3Sc3ccc(Cl)cc32)CC1

>  <z-score>
-0.54

$$$$
>  <compound>
Cc1cc(C(C#N)c2ccc(Cl)cc2)c(Cl)cc1NC(=O)c1cc(I)cc(I)c1O (configuration not stated)

>  <z-score>
0.12

$$$$
>  <compound>
Nc1cc(=O)[nH]c(N)n1

>  <z-score>
0.355

$$$$
>  <compound>
N[C@@H](Cc1c[nH]c2ccc(O)cc12)C(=O)O

>  <z-score>
0.37

$$$$
>  <compound>
COCCCOc1ccnc(CS(=O)c2nc3ccccc3[nH]2)c1C (configuration not stated)

>  <z-score>
-0.225

$$$$

* * *

Assay: stimulators of nuclear beta-catenin in C2C12, primary screen, imaging, WNT3A-conditioned medium, mouse C2C12, NPC library (AID 1117326); note: reference of the scale not given here
Conditions: stimulation, at 2 µM, stronger effect = higher value
quantity: nuclear beta-catenin stimulation (%)

>  <molecule>
O=[N+]([O-])c1cccc(S(=O)(=O)NCCNS(=O)(=O)c2cccc([N+](=O)[O-])c2)c1

>  <quantity>
nuclear beta-catenin stimulation

>  <result number>
0.2

$$$$
>  <molecule>
O=[N+]([O-])c1ccc(O)c2ncccc12

>  <quantity>
nuclear beta-catenin stimulation

>  <result number>
1.9

$$$$
>  <molecule>
CCCCCCCCCCCCCCCCO

>  <quantity>
nuclear beta-catenin stimulation

>  <result number>
0.7

$$$$
>  <molecule>
CC(C)CCCC(C)N (stereo unspecified)

>  <quantity>
nuclear beta-catenin stimulation

>  <result number>
2

$$$$
>  <molecule>
Cc1c(C)c2c(c(C)c1O)CCC(C)(COc1ccc(CC3SC(=O)NC3=O)cc1)O2 (stereo unspecified)

>  <quantity>
nuclear beta-catenin stimulation

>  <result number>
10.4

$$$$
>  <molecule>
Clc1cccc(C(c2ccc3nc[nH]c3c2)n2ccnc2)c1 (stereo unspecified)

>  <quantity>
nuclear beta-catenin stimulation

>  <result number>
-0.6

$$$$

* * *

Experiment: HCT116 colon cancer cell growth inhibition, primary screen, CellTiter-Glo luminescence, NPC library (AID 1117342)
Conditions: at 20 µM (top of the series)
Measured inhibition of viability values are reported for all entries that follow.
quantity: inhibition of viability (%)

>  <compound>
CC(=O)Oc1cc(C(C)C)c(OCCN(C)C)cc1C

>  <quantity>
inhibition of viability

>  <result number>
2.17

$$$$
>  <compound>
COc1ccc2c(c1)C(=O)N(CCc1ccc(S(=O)(=O)NC(=O)NC3CCCCC3)cc1)C(=O)C2(C)C

>  <quantity>
inhibition of viability

>  <result number>
68

$$$$
>  <compound>
CCC(=O)c1ccc2c(c1)N(CCCN(C)C)c1ccccc1S2

>  <quantity>
inhibition of viability

>  <result number>
46.9

$$$$
>  <compound>
Cc1ccc2nc(N)[nH]c(=O)c2c1Sc1ccncc1

>  <quantity>
inhibition of viability

>  <result number>
81.5

$$$$
>  <compound>
CCOC(=O)c1ccccc1O

>  <quantity>
inhibition of viability

>  <result number>
3.3

$$$$
>  <compound>
C[C@@H](C1=C(CCN(C)C)Cc2ccccc21)c1ccccn1

>  <quantity>
inhibition of viability

>  <result number>
-11.9

$$$$
>  <compound>
Nc1c(CC(=O)O)cccc1C(=O)c1ccccc1

>  <quantity>
inhibition of viability

>  <result number>
0.4

$$$$
>  <compound>
CC(CNC1CCCCC1)OC(=O)c1ccccc1 (stereo unspecified)

>  <quantity>
inhibition of viability

>  <result number>
-12.8

$$$$
>  <compound>
O=C(NCC1CN(c2ccc(N3CCOCC3=O)cc2)C(=O)O1)c1ccc(Cl)s1 (stereo unspecified)

>  <quantity>
inhibition of viability

>  <result number>
51.2

$$$$
>  <compound>
CC(=O)[C@@]1(O)CC[C@H]2[C@@H]3CCC4=CC(=O)CC[C@]4(C)[C@H]3CC[C@@]21C

>  <quantity>
inhibition of viability

>  <result number>
20.1

$$$$
>  <compound>
CCOC(=O)Nc1ccc(NCc2ccc(F)cc2)nc1N

>  <quantity>
inhibition of viability

>  <result number>
18.8

$$$$
